- tested_target: Ylr278c (UniProt Q05854)
- Sequence (Q05854 whole entry): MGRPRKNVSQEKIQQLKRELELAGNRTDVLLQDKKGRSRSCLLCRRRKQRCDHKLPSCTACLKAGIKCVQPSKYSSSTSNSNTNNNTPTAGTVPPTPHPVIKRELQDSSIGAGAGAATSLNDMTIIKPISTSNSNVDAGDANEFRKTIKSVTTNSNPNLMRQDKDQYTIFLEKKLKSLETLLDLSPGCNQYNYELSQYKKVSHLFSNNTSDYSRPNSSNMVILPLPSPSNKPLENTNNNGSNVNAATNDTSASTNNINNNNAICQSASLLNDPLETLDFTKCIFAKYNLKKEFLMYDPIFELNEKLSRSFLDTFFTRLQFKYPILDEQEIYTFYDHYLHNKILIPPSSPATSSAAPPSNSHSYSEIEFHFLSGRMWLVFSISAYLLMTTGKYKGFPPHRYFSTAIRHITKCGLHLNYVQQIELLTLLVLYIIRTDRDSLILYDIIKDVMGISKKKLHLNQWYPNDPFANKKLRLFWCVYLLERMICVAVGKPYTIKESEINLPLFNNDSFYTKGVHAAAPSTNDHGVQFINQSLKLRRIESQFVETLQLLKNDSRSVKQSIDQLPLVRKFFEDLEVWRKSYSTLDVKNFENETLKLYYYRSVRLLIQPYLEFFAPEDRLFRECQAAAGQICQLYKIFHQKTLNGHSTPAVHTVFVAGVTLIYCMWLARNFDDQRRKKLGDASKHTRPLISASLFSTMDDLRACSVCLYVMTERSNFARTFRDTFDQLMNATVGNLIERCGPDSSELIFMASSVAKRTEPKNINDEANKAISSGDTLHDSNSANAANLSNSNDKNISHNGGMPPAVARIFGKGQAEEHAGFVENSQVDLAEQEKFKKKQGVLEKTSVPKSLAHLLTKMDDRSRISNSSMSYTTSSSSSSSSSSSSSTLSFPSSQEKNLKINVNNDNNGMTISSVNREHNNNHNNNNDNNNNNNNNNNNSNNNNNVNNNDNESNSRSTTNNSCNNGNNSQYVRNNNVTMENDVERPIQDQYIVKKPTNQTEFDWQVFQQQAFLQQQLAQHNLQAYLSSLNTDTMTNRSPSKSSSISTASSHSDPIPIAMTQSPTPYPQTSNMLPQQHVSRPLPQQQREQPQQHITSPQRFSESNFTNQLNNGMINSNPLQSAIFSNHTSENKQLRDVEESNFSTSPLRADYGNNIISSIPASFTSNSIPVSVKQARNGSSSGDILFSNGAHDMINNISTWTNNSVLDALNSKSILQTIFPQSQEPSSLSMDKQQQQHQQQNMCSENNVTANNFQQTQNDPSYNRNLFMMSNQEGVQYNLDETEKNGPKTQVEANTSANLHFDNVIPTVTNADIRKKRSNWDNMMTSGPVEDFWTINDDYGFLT
- measurement_protocol: PBM E-score (8-mer binding enrichment) (E-score (-0.5 to 0.5)); higher = stronger / more preferred TF binding
- assay_conditions: protein concentration: 200 nM; construct: GST-DNA-binding domain
The full ranking holds about 33,000 sequences; the median of “E-score (-0.5 to 0.5)” is about -0.054, and the highest 2% start at about 0.39. The full list was thinned out, with the highest values kept by preference.
recorded_metric: PBM E-score
Give your answer as a number; write no unit.

Solved entries (count: 5):
INSERT INTO measurements (sequence_text, recorded_number) VALUES
  ('CTCTTCTC', -0.106),
  ('CGACTGTA', -0.139),
  ('GGAGACTA', 0.0463),
  ('ACCCAAGT', -0.215),
  ('ACATATCA', -0.0989);

Please examine the following record next.
Task: Please look at this sequence and report its PBM E-score: `ATATGCAA`
Result: -0.0841
